- Tested on: HPV-16
- testSummary: qPCR sensitivity against HPV-HNSCC tumor samples diluted among 10 ng normal human DNA
- conditionParameters: Sample # 9
We begin with a simple list: items and their reported Threshold of tumor cell numbers for HPV-16 detection.
measuredQuantity: Threshold of tumor cell numbers for HPV-16 detection (tumor cells)

{"columns": ["molecule", "recordedValue"],
 "data": [
  ["BR E1-6: HPV-16 E1 region primer/probe set, SEQ ID NO: 43-45 (nucleic acid, chemistry not given here) DNA 1: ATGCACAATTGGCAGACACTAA DNA 2: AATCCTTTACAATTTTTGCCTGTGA DNA 3: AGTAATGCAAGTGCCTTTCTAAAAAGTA", 30.0],
  ["BR E6-1: HPV-16 E6 region (172-373 bp) primer/probe set, SEQ ID NO: 58-60 (nucleic acid, chemistry not given here) DNA 1: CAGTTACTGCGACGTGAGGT DNA 2: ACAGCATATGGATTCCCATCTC DNA 3: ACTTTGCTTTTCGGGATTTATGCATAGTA", 30.0],
  ["E7: previously designed (historical) HPV-16 E7 primers and Taqman probe, SEQ ID NO: 10-12; part of CLIA test (nucleic acid, Taqman probe, labels not given here, part of CLIA test) DNA 1: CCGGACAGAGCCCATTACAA DNA 2: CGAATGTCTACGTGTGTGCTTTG DNA 3: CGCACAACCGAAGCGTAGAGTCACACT", 30.0]
]}
